Entries and their Fold increase h-GABA-A α5β3γ2 oocyte values follow.
# TARGET UNDER TEST: h-GABA-A α5β3γ2 (Homo sapiens (Human), UniProt P18507+P31644)
# Sequence (P31644 32-462): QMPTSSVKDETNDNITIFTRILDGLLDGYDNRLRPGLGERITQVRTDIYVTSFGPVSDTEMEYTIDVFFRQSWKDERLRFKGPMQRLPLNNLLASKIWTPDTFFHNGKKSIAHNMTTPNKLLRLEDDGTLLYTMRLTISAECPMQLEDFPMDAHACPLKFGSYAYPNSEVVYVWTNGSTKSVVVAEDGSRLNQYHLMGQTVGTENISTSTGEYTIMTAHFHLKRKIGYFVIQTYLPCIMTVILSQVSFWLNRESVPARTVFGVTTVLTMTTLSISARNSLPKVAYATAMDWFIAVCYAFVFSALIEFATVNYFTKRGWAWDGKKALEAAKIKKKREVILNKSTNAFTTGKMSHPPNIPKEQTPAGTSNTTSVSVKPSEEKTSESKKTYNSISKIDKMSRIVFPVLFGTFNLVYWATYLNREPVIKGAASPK
# Sequence (P28472 26-473 partner): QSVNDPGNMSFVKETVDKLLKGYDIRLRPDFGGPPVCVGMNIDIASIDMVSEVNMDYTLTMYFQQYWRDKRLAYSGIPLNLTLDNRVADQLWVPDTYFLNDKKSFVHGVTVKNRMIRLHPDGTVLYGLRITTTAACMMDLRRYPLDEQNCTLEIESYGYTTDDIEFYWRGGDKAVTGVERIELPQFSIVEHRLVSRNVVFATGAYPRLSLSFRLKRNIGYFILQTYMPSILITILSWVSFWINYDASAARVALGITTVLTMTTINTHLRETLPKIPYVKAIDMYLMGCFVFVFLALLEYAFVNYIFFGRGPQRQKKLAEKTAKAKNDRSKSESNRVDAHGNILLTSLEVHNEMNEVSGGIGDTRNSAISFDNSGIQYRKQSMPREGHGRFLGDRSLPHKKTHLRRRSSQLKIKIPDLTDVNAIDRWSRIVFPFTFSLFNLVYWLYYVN
# Sequence (P18507 40-475): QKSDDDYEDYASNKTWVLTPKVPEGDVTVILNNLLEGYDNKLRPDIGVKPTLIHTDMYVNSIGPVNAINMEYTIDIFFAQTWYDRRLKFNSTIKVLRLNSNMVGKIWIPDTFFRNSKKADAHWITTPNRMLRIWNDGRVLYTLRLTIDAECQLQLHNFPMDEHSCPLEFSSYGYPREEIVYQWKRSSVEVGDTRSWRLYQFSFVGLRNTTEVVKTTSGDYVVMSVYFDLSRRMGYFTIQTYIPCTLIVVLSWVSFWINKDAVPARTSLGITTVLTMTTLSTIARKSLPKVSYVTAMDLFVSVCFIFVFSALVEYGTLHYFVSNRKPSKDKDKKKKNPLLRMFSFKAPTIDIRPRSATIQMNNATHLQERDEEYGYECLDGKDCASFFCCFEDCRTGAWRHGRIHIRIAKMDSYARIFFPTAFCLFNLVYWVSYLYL
# EXPERIMENT DESCRIPTION: Two-electrode voltage clamp electrophysiology in Xenopus oocytes expressing GABAA receptors, modulation of GABA EC20 current
# Assay type: cell-based
# CONDITION SET: Xenopus oocytes, GABA EC20, test compound at approx. 30 fold its Ki
No unit in the answer, only the number.

- COMPOUND: "Cc1ccc(-c2noc(C)c2COc2ccc(C(=O)N[C@H]3C[C@@H](OC4CC4)C3)nn2)cn1"
  Fold increase h-GABA-A α5β3γ2 oocyte: 1.64
- COMPOUND: "COc1ccc(-c2noc(C)c2COc2ccc(C(=O)N3CCS(=O)(=O)CC3)cn2)cn1"
  Fold increase h-GABA-A α5β3γ2 oocyte: 1.13
- COMPOUND: "Cc1ccc(-c2noc(C)c2COc2ccc(C(=O)NC3CCOCC3)cn2)cn1"
  Fold increase h-GABA-A α5β3γ2 oocyte: 1.42
- COMPOUND: "Cc1ccc(-c2noc(C)c2COc2ccc(C(=O)NC3CCS(=O)(=O)C3)cn2)cn1 (centres unmarked)"
  Fold increase h-GABA-A α5β3γ2 oocyte: 1.85

Notebook: `Cc1ccc(-c2noc(C)c2COc2ccc(C(=O)N3CC4(COC4)C3)nn2)cn1` , Fold increase h-GABA-A α5β3γ2 oocyte read as 1.58

Notebook: `O=C(NC1CC2(COC2)C1)c1ccc(OCc2c(-c3ccc(Cl)nc3)noc2C2CC2)nn1` , Fold increase h-GABA-A α5β3γ2 oocyte read as 1.73

Notebook: `Cc1ccc(-c2noc(CF)c2COc2ccc(C(=O)NC3CCOCC3)nn2)nn1` , Fold increase h-GABA-A α5β3γ2 oocyte read as 1.56

Notebook: `Cc1ccc(-c2noc(C)c2COc2ccc(C(=O)NC3(C)CCOCC3)nn2)cn1` , Fold increase h-GABA-A α5β3γ2 oocyte read as 1.71

Notebook: `Cc1ccc(-c2noc(C)c2COc2cc3c(cn2)C(=O)N(C)C3)cn1` , Fold increase h-GABA-A α5β3γ2 oocyte read as 1.8
